- ASSAYED TARGET: T1, KRPPGFSPFR-biotin
- T1 construct: also called KD-b; KD-biotin
- T1 peptide: KRPPGFSPFR-biotin
- ASSAY PROTOCOL: Biacore, biotin-peptide on SA chip;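 further: purified antibodies injected as twofold dilutions from 0.1 to 10 nM in HBS-EP over streptavidin-captured biotinylated BKR1 or BKR2 ligand peptides, with a random-peptide flow cell as reference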
Ends that are not written are not given here.
Known kon of a selection of binders
Please state the figure in M⁻¹ s⁻¹; there is no need to write the unit.

Find the recorded kon belonging to humanized F151 variant HC1/LC1 (antibody, V domains shown, also called LC1xHC1) VH: EIQLVQSGPEVKKPGASVKVSCKASGYSFTDYNIYWVKQSPGKSLEWIGYFDPYNGNTGYNQKFRGKATLTVDKSSSTAFMHLSSLTSEDSAVYYCANYYRYDDHAMDYWGQGTSVTVSS VL: DIVMSQSPSSLAASVGDRVTMSCKSSQSLLYSSNQKNYLAWYQQKPGKSPKPLIYWASTRESGVPDRFTGSGSGTDFTLTISSVQAEDLAIYYCQQYYSYPWTFGGGTKLEIK and report it.
424000

Find the recorded kon belonging to humanized F151 variant HC2a/LC2a (antibody, human IgG1, V domains shown, also called LC2axHC2a) VH: QIQLVQSGAEVKKPGASVKVSCKASGYSFTDYNIYWVKQSPGKGLEWIGYFDPYNGNTGYNQKFRGKATLTVDKSSSTAYMHLSSLTSEESAVYYCANYYRYDDHAMDYWGQGTSVTVSS VL: DIVMTQSPSSLSASVGDRVTISCKSSQSLLYSSNQKNYLAWYQQKPGKSPKPLIYWASTRESGVPDRFSGSGSGTDFTLTISSVQAEDLATYYCQQYYSYPWTFGGGTKLEIK and report it.
703000

Find the recorded kon belonging to humanized F151 variant HC2c/LC2b (antibody, human IgG1, V domains shown, also called LC2bxHC2c) VH: QIQLVQSGAEVKKPGASVKVSCKASGYSFTDYNIYWVKQSPGKGLEWIGYFDPYNGNTGYNQKFRGKATLTVDKSSSTAYMHLSSKTSEESAVYYCANYYRYDDHAMDYWGQGTSVTVSS VL: DIVMTQSPSSLSASVGDRVTISCKSSQSLLYSSNQKNYLAWYQQKPGKSPKPLIYWASTRESGVPDRFSGSGSGTDFTLTISSVQAEDKATYYCQQYYSYPWTFGGGTKLEIK and report it.
564000
